The entries below are paired with their reported IC50 (concentration at which 50% of DPPIV activity was inhibited).
biological target: DPPIV enzyme; human recombinant (Homo sapiens, UniProt P27487); construct: purchased BIOMOL E434-9090 (kit AK-499); assay: DPPIV inhibitory activity (DPPIV Drug Discovery Kit-AK-499, H-Gly-Pro-AMC substrate); format: biochemical; details: peptides; human recombinant DPPIV
Sequence (P27487 whole entry): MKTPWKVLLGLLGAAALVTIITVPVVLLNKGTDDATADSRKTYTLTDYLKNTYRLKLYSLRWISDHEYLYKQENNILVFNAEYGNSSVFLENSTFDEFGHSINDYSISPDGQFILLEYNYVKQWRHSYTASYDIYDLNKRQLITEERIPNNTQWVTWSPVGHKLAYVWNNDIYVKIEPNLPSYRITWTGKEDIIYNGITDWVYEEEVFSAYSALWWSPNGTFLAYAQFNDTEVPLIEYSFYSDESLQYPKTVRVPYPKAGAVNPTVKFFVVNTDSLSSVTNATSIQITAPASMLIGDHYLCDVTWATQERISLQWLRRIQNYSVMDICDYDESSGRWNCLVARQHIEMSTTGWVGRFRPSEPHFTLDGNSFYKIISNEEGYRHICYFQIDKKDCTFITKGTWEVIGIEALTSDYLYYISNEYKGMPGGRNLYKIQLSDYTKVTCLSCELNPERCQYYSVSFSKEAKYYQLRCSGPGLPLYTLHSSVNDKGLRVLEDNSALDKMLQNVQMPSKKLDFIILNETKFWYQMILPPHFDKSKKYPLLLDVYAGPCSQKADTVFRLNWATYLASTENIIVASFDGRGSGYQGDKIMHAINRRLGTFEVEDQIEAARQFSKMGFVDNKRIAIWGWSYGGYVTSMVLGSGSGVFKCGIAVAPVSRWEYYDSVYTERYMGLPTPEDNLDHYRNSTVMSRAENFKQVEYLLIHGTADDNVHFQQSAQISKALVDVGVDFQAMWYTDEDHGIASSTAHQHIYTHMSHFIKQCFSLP
Square brackets hold non-standard residues; d marks the D form. Peptide text beside a SMILES is read from it. Hyp = O=C(O)[C@@H]1C[C@@H](O)CN1
metric-name: IC50 (concentration at which 50% of DPPIV activity was inhibited) (µM)

molecule	units	recorded-measurement
CC(C)C[C@H](N)C(=O)N1C[C@H](O)C[C@H]1C(=O)O [LO, Leu-Hyp] (H-Leu-[Hyp]-OH; N-terminus and C-terminus assumed)	µM	1700
N[C@@H](CCC(=O)O)C(=O)N1C[C@H](O)C[C@H]1C(=O)O [EO, Glu-Hyp] (H-Glu-[Hyp]-OH; N-terminus and C-terminus assumed)	µM	1500
C[C@H](N)C(=O)N1C[C@H](O)C[C@H]1C(=O)NCC(=O)O [AOG, Ala-Hyp-Gly] (H-Ala-[Hyp]-Gly-OH; N-terminus and C-terminus assumed)	µM	6000
CC(C)C[C@H](N)C(=O)N1C[C@H](O)C[C@H]1C(=O)NCC(=O)O [LOG, Leu-Hyp-Gly] (H-Leu-[Hyp]-Gly-OH; N-terminus and C-terminus assumed)	µM	280

Source: patent US9061003B2
